- System: HCCLM3
- assay.explanation: Antiproliferative activity against human HCCLM3 cells after 48 hrs by MTT assay
- Assay type: functional, cell-based
- setup.conditions: HCCLM3, 48 h
pIC50: −log10 of the molar value.
reported.endpoint: pIC50

>  <input.smiles>
COc1ccc(N(Cc2noc(-c3cccc(C)c3)n2)C(=O)CCCCCC(=O)NO)cc1

>  <quantitative.result>
5.17

$$$$
>  <input.smiles>
COc1ccc(N(Cc2noc(-c3ccccc3)n2)C(=O)CCCCCC(=O)NO)cc1

>  <quantitative.result>
5.28

$$$$
>  <input.smiles>
COc1ccc(N(Cc2noc(-c3cccc(F)c3)n2)C(=O)CCCCCC(=O)NO)cc1

>  <quantitative.result>
5.18

$$$$

----------
- target.desc: Histone deacetylase 1 (Homo sapiens, UniProt Q13547)
- Sequence (Q13547 whole entry): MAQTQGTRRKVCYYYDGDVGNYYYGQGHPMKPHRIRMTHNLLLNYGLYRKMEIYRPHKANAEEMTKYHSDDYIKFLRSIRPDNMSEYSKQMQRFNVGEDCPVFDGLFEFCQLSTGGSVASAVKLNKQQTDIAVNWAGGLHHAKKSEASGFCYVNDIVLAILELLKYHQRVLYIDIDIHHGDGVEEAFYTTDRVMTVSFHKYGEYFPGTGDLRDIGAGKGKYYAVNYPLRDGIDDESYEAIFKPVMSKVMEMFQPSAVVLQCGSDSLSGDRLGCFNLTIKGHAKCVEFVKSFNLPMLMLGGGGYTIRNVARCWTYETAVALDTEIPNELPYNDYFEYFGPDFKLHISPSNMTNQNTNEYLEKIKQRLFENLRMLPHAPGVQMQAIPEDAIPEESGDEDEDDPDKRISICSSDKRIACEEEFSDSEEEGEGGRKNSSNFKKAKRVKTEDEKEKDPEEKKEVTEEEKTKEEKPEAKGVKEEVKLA
pIC50: −log10 of the molar value.
reported.endpoint: pIC50

>  <input.smiles>
COc1ccc(N(Cc2noc(-c3ccccc3)n2)C(=O)CCCCCC(=O)NO)cc1

>  <pIC50>
8.09

$$$$
>  <input.smiles>
COc1ccc(N(Cc2noc(-c3cccc(F)c3)n2)C(=O)CCCCCC(=O)NO)cc1

>  <pIC50>
7.98

$$$$
